System: COLO 205 colon
methodDescription: NCI-60 one-dose screen, 48 h (100 = growth as untreated, 0 = no growth, -100 = all killed)
conditionInfo: 10 µM
This is part of a sample that, as a whole, favours compounds with a hit. Of some 83,000 tested, about 20% had one in any assay.
Parameter growth: see the listing below.
Quick reminder: number only, in %, skip the unit.

Known results for compounds:
compound	experimentalTarget	measurementUnits	growth
CC(C)c1cc([N+](=O)[O-])cc([N+](=O)[O-])c1O	COLO 205 colon	%	105
COc1ccccc1[As]=[As]c1ccccc1OC (stereo not given)	COLO 205 colon	%	-93.1
COc1cc([C@@H]2c3cc4c(c(O)c3C[C@H]3COC(=O)[C@@H]32)OCO4)cc(OC)c1OC	COLO 205 colon	%	-69.5
O=C1CCC(=O)N1SC(Cl)(Cl)Cl	COLO 205 colon	%	112
CC[C@@H](C)[C@@H]1NC(=O)C(NC(=O)C(CC(C)C)N(C)C(=O)C2CCCN2C(=O)C(C)O)C(C)OC(=O)C(Cc2ccc(OC)cc2)N(C)C(=O)C2CCCN2C(=O)C(CC(C)C)NC(=O)C(C)C(=O)C(C(C)C)OC(=O)C[C@H]1O (stereo not given in full)	COLO 205 colon	%	-69.5

Here's the next entry for you.
Return value of growth for input CCCCCCCC[N+]12CN3CN(CN(C3)C1)C2 , no commentary.
104
